Data provenance: patent US20240101959A1

Molecular target: T1, hu-IL-2Rβ subunit (human, UniProt P14784 27-240, limits assumed)
T1 construct: also called human interleukin-2 receptor subunit β; CD122
T1 sequence (looked up): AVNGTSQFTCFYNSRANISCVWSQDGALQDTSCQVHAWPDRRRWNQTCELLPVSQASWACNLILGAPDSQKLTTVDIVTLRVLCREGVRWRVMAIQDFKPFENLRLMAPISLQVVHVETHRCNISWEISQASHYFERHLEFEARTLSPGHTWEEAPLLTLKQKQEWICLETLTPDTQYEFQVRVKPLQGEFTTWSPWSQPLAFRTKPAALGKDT
Assay: phage ELISA competition assay
pIC50: −log10 of the molar value.
property.label: pIC50

Query: What does the record list as pIC50 for WTPCWIAHLGDLCDLEPQDDTD [SEQ ID NO 226] ?
Result: > 4.00

Query: What do you have for QRNSFPCWLAQLGDLCDLGDWA [SEQ ID NO 240] ?
Result: > 4.00

Query: Follow-up item: WLPCWMAHLGQLCDLDLPGKSM [SEQ ID NO 96]
Result: > 4.00

Query: Okay, and HPVRYPCWVAQLGELCDLENGN [SEQ ID NO 246] ?
Result: > 4.00

Query: Ok, now YVPCYMARLGELCELEANRPGQ [SEQ ID NO 223]
Result: > 4.00

Query: Likewise for WYPCYMASLGELCDLQSSISPR [SEQ ID NO 232] ?
Result: > 4.00

Query: // repeat for WHPCWLARVGDLCDLD [SEQ ID NO 366] and report
Result: > 4.00
